Kindly state IC50, Thiofiavin T aggregation assay for each of the entries shown.
# TARGET_SYSTEM: T1, Nat1 (LTIITLE) (also: TFA salt)
# T1 peptide: LTIITLE
# TEST_METHOD_NOTES: cell-based or functional assay
Non-standard residues stand in square brackets, D forms with d. No end group written: not given here. Phg = N[C@H](C(=O)O)c1ccccc1
The reply should be a number in nM, with the unit left off.

Enquiry: Quick check: IC50, Thiofiavin T aggregation assay of IRIARYR ?
Return: 44

Enquiry: Would you mind telling me what IC50, Thiofiavin T aggregation assay value was observed for LYIRHK ?
Return: 316

Enquiry: Fill in the blank: the reported IC50, Thiofiavin T aggregation assay of [Phg]R[Phg]RRYR [Phg-Arg-Phg-Arg-Arg-Tyr-Arg] is ____.
Return: 5950

Enquiry: Which IC50, Thiofiavin T aggregation assay is listed for [dF][dA][dR][dA][dH][dR][dR] [farahrr] ?
Return: 906
